Sourced from ChEMBL document CHEMBL1143609

Tested on: COLO 320
TEST: Inhibitory concentration against COLO 320 cell line
Type: functional, cell-based
EXPERIMENTAL_PARAMETERS: Homo sapiens
Provide the reported pIC50 of each item.
One number for each entry, as −log10 of the molar value.

- COMPOUND: "COc1cccc2c(=O)c3c(O)cc4c(c3oc12)C[C@H]([C@@](C)(O)CO)O4"
  QUANTITY_KIND: "pIC50"
  NUMERIC_VALUE: 4.72
- COMPOUND: "COc1cccc2c(=O)c3c(O)cc4c(c3oc12)[C@@H]1OC[C@]2(CO2)[C@@H]1O4"
  QUANTITY_KIND: "pIC50"
  NUMERIC_VALUE: 5.04
- COMPOUND: "COc1cccc2c(=O)c3c(O)cc4c(c3oc12)[C@@H]1OC[C@](O)(CCl)[C@@H]1O4"
  QUANTITY_KIND: "pIC50"
  NUMERIC_VALUE: 6.05
- COMPOUND: "COc1cc2c(c3oc4c(O)cccc4c(=O)c13)C[C@H]([C@@]1(C)CO1)O2 [PSOROSPERMIN]"
  QUANTITY_KIND: "pIC50"
  NUMERIC_VALUE: 7.16

Now turn to the next compound.
pIC50 for `COc1cccc2c(=O)c3c(O)cc4c(c3oc12)[C@@H]1OC[C@](O)(CO)[C@@H]1O4` ?
4.91
